Overview of recorded hERG current change (%, negative = inhibition) at 1uM for various compounds
# Study system: human ether-à-go-go-related gene (hERG) potassium channel (human, UniProt Q12809)
# Sequence (Q12809 whole entry, looked up): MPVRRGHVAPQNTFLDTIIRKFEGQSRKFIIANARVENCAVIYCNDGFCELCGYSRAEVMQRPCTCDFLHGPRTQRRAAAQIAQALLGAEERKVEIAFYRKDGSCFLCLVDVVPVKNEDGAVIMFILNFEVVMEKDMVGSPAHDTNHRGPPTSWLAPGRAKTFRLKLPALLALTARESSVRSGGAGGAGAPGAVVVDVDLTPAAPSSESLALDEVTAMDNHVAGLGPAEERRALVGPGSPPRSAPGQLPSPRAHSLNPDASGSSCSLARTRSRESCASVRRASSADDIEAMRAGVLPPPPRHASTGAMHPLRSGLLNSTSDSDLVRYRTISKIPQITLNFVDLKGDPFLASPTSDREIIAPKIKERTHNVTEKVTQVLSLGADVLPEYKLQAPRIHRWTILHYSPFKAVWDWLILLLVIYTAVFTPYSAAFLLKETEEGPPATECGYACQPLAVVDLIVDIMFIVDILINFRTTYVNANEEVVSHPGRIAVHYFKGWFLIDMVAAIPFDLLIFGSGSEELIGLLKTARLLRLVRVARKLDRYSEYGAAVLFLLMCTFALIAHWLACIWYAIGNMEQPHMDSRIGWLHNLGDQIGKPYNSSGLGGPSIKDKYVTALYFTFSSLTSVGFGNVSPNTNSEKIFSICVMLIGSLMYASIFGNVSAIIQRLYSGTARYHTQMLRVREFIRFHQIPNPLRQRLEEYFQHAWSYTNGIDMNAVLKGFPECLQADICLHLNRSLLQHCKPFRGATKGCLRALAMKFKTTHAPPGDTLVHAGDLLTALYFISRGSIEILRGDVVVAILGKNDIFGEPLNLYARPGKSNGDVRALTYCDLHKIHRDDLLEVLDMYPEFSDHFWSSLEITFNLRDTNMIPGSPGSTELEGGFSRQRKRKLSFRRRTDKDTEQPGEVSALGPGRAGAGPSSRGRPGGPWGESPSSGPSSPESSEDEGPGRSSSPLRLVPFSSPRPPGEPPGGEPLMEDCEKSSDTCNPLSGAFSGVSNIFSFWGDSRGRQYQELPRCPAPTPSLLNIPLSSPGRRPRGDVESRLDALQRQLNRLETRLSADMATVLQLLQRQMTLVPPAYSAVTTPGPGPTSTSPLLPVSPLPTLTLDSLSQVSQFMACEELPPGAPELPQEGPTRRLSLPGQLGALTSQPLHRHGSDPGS
# Test description: primary screen, population patch clamp on CHO cells stably expressing hERG; higher = less effect of the substance
Hit rate of the full screen: of about 310,000 compounds, about 2,200 (0.71%) showed an effect of 50% or more. Effects have a minus sign here. Only a selection was taken, and strong results are over-represented in it overall.
Quantity: hERG current change (%, negative = inhibition) at 1uM (%)

[
  {
    "Compound": "Cn1nc2c(c1C(=O)N1CCCC(C(=O)c3cc(F)ccc3F)C1)CCCC2 (stereo not drawn)",
    "Study system": "human ether-à-go-go-related gene (hERG) potassium channel (human, UniProt Q12809)",
    "Unit of measurement": "%",
    "Measured": 10.8
  },
  {
    "Compound": "CCOC(=O)C1(CCOc2ccccc2)CCN(Cc2nccn2CC)CC1",
    "Study system": "human ether-à-go-go-related gene (hERG) potassium channel (human, UniProt Q12809)",
    "Unit of measurement": "%",
    "Measured": -5.37
  },
  {
    "Compound": "CC(C)CCC(CCN1CCOCC1)c1ccc2c(c1)OCO2.Cl (stereo not drawn)",
    "Study system": "human ether-à-go-go-related gene (hERG) potassium channel (human, UniProt Q12809)",
    "Unit of measurement": "%",
    "Measured": -76.8
  },
  {
    "Compound": "CCCN1CCN(C(=S)Nc2ccc([N+](=O)[O-])cc2)CC1",
    "Study system": "human ether-à-go-go-related gene (hERG) potassium channel (human, UniProt Q12809)",
    "Unit of measurement": "%",
    "Measured": -11
  },
  {
    "Compound": "O=C(c1cc2ccccc2oc1=O)N1CCN(CCc2ccccc2)CC1",
    "Study system": "human ether-à-go-go-related gene (hERG) potassium channel (human, UniProt Q12809)",
    "Unit of measurement": "%",
    "Measured": -60.4
  },
  {
    "Compound": "COC(=O)[C@H](C)NC(=O)Nc1ccc(C)c(C)c1",
    "Study system": "human ether-à-go-go-related gene (hERG) potassium channel (human, UniProt Q12809)",
    "Unit of measurement": "%",
    "Measured": 15.2
  },
  {
    "Compound": "Cc1ccc(S(=O)(=O)NC2CCC(C(=O)O)CC2)cc1 (stereo not drawn)",
    "Study system": "human ether-à-go-go-related gene (hERG) potassium channel (human, UniProt Q12809)",
    "Unit of measurement": "%",
    "Measured": 9.17
  },
  {
    "Compound": "COc1cc(O)c(C(CCN2CCOCC2)c2ccc3c(c2)OCO3)c(OC)c1 (stereo not drawn)",
    "Study system": "human ether-à-go-go-related gene (hERG) potassium channel (human, UniProt Q12809)",
    "Unit of measurement": "%",
    "Measured": -45.7
  },
  {
    "Compound": "Cc1ccc(-n2nc(C(=O)N3CCOCC3)cc2-c2ccc(Cl)cc2)cc1",
    "Study system": "human ether-à-go-go-related gene (hERG) potassium channel (human, UniProt Q12809)",
    "Unit of measurement": "%",
    "Measured": -87.4
  },
  {
    "Compound": "COc1cc(C(=O)N2CCN(CCCc3ccccc3)CC2)cc(OC)c1OC",
    "Study system": "human ether-à-go-go-related gene (hERG) potassium channel (human, UniProt Q12809)",
    "Unit of measurement": "%",
    "Measured": 3.21
  },
  {
    "Compound": "c1ccc(NC2=NCCCCS2)cc1",
    "Study system": "human ether-à-go-go-related gene (hERG) potassium channel (human, UniProt Q12809)",
    "Unit of measurement": "%",
    "Measured": -9.85
  },
  {
    "Compound": "O=C(c1cc(-c2ccc(Cl)cc2)n(-c2cc(Cl)ccc2Cl)n1)N1CCOCC1",
    "Study system": "human ether-à-go-go-related gene (hERG) potassium channel (human, UniProt Q12809)",
    "Unit of measurement": "%",
    "Measured": -3.98
  },
  {
    "Compound": "C(=NCCCN1CCOCC1)c1ccc2c(c1)OCO2",
    "Study system": "human ether-à-go-go-related gene (hERG) potassium channel (human, UniProt Q12809)",
    "Unit of measurement": "%",
    "Measured": 16.1
  },
  {
    "Compound": "OCC1(CCc2ccccc2)CCN(Cc2cccn2-c2cccnc2)CC1",
    "Study system": "human ether-à-go-go-related gene (hERG) potassium channel (human, UniProt Q12809)",
    "Unit of measurement": "%",
    "Measured": -23.3
  },
  {
    "Compound": "Cc1ccc(-n2nc(C(=O)O)cc2-c2ccc(Cl)cc2)cc1",
    "Study system": "human ether-à-go-go-related gene (hERG) potassium channel (human, UniProt Q12809)",
    "Unit of measurement": "%",
    "Measured": 8.61
  },
  {
    "Compound": "CCOCCCn1c(SC(C(=O)Nc2cc(C)ccc2C)c2ccccc2)nnc1-c1ccc(Cl)cc1 (stereo not drawn)",
    "Study system": "human ether-à-go-go-related gene (hERG) potassium channel (human, UniProt Q12809)",
    "Unit of measurement": "%",
    "Measured": 13.5
  },
  {
    "Compound": "O=C(c1cc(-c2ccc(Cl)cc2)n(-c2ccc(Cl)cc2Cl)n1)N1CCOCC1",
    "Study system": "human ether-à-go-go-related gene (hERG) potassium channel (human, UniProt Q12809)",
    "Unit of measurement": "%",
    "Measured": -40.7
  },
  {
    "Compound": "NC(=O)c1c(NC(=O)Cn2cc([N+](=O)[O-])cn2)sc2c1CCCC2",
    "Study system": "human ether-à-go-go-related gene (hERG) potassium channel (human, UniProt Q12809)",
    "Unit of measurement": "%",
    "Measured": 2.68
  },
  {
    "Compound": "O=C(c1cc(-c2ccc(Cl)cc2)n(-c2ccc(Cl)cc2)n1)N1CCOCC1",
    "Study system": "human ether-à-go-go-related gene (hERG) potassium channel (human, UniProt Q12809)",
    "Unit of measurement": "%",
    "Measured": -56.8
  },
  {
    "Compound": "CCOC(=O)C1(CCOc2ccccc2)CCN(Cc2cccn2-c2ncccn2)CC1",
    "Study system": "human ether-à-go-go-related gene (hERG) potassium channel (human, UniProt Q12809)",
    "Unit of measurement": "%",
    "Measured": -81.6
  },
  {
    "Compound": "COc1ccc(C(=O)N2CCN(CCc3ccccc3)CC2)cc1[N+](=O)[O-]",
    "Study system": "human ether-à-go-go-related gene (hERG) potassium channel (human, UniProt Q12809)",
    "Unit of measurement": "%",
    "Measured": -73.5
  }
]
